Entry source: patent US20220162561A1

System: mesenchymal stem cells derived from human bone marrow
Experiment: Test Example 8: cytotoxicity, LDH activity in culture solution
Type: cell-based
Conditions: 2 μM, 24 hours; LDH, 490 nm; control set to 1
value_kind: Relative value of absorbance

[[record]]
compound = "CC(=O)O.Cc1cc2c(C(C)C)c(O)c(O)c(C=O)c2c(O)c1-c1c(C)cc2c(C(C)C)c(O)c(O)c(C=O)c2c1O (racemic) [Example 1, (±)-Gossypol Acetate]"
result_value = 0.93

[[record]]
compound = "Cc1cc2c(C(=O)NC[C@H](C)c3ccccc3)c(O)c(O)cc2c(O)c1-c1c(C)cc2c(C(=O)NC[C@H](C)c3ccccc3)c(O)c(O)cc2c1O"
result_value = 1.01

[[record]]
compound = "Cc1cc2c(C(C)C)c(O)c(O)c(C=O)c2c(O)c1-c1c(C)cc2c(C(C)C)c(O)c(O)c(C=O)c2c1O [Example 4, (R)-(−)-Gossypol]"
result_value = 0.97

[[record]]
compound = "CC(=O)O.Cc1cc2c(C(C)C)c(O)c(O)c(C=O)c2c(O)c1-c1c(C)cc2c(C(C)C)c(O)c(O)c(C=O)c2c1O [Example 2, (S)-Gossypol Acetate]"
result_value = 0.99


###

Test system: mesenchymal stem cells derived from human adipose tissue
Experiment: Test Example 4: cytotoxicity, LDH activity in culture solution
Type: cell-based
Details: Table 4; 2 μM, 24 hours; LDH, absorbance at 490 nm
Reported Absorbance values for the following compounds.
value_kind: Absorbance

[[record]]
compound = "CC(=O)O.Cc1cc2c(C(C)C)c(O)c(O)c(C=O)c2c(O)c1-c1c(C)cc2c(C(C)C)c(O)c(O)c(C=O)c2c1O (racemic) [Example 1, (±)-Gossypol Acetate]"
value_kind = "Absorbance"
result_value = 0.73

[[record]]
compound = "Cc1cc2c(C(C)C)c(O)c(O)c(C=O)c2c(O)c1-c1c(C)cc2c(C(C)C)c(O)c(O)c(C=O)c2c1O [Example 4, (R)-(−)-Gossypol]"
value_kind = "Absorbance"
result_value = 1.20

[[record]]
compound = "Cc1cc2c(C(=O)NC[C@H](C)c3ccccc3)c(O)c(O)cc2c(O)c1-c1c(C)cc2c(C(=O)NC[C@H](C)c3ccccc3)c(O)c(O)cc2c1O"
value_kind = "Absorbance"
result_value = 1.18

[[record]]
compound = "CC(=O)O.Cc1cc2c(C(C)C)c(O)c(O)c(C=O)c2c(O)c1-c1c(C)cc2c(C(C)C)c(O)c(O)c(C=O)c2c1O [Example 2, (S)-Gossypol Acetate]"
value_kind = "Absorbance"
result_value = 1.02


###

Tested on: mesenchymal stem cells derived from human umbilical cord matrix
Assay: Test Example 8: cytotoxicity, LDH activity in culture solution
Format: cell-based
Conditions: 2 μM, 24 hours; LDH, 490 nm; control set to 1
value_kind: Relative value of absorbance

[[record]]
compound = "CC(=O)O.Cc1cc2c(C(C)C)c(O)c(O)c(C=O)c2c(O)c1-c1c(C)cc2c(C(C)C)c(O)c(O)c(C=O)c2c1O [Example 2, (S)-Gossypol Acetate]"
result_value = 1.04

[[record]]
compound = "CC(=O)O.Cc1cc2c(C(C)C)c(O)c(O)c(C=O)c2c(O)c1-c1c(C)cc2c(C(C)C)c(O)c(O)c(C=O)c2c1O (racemic) [Example 1, (±)-Gossypol Acetate]"
result_value = 0.78

[[record]]
compound = "Cc1cc2c(C(C)C)c(O)c(O)c(C=O)c2c(O)c1-c1c(C)cc2c(C(C)C)c(O)c(O)c(C=O)c2c1O [Example 4, (R)-(−)-Gossypol]"
result_value = 0.88

[[record]]
compound = "Cc1cc2c(C(=O)NC[C@H](C)c3ccccc3)c(O)c(O)cc2c(O)c1-c1c(C)cc2c(C(=O)NC[C@H](C)c3ccccc3)c(O)c(O)cc2c1O"
result_value = 1.15

